- Tested Target: engineered OX2R carrying an additional amino-terminal Avi-tag, biotinylated (Homo sapiens, UniProt O43614, residues V261–A291 deleted, biotin on the Avi-tag (BirA biotin-protein ligase))
- Sequence (O43614 other isoform, or with tags, fused parts or gaps residues V261–A291 deleted | residues V261–A291 deleted): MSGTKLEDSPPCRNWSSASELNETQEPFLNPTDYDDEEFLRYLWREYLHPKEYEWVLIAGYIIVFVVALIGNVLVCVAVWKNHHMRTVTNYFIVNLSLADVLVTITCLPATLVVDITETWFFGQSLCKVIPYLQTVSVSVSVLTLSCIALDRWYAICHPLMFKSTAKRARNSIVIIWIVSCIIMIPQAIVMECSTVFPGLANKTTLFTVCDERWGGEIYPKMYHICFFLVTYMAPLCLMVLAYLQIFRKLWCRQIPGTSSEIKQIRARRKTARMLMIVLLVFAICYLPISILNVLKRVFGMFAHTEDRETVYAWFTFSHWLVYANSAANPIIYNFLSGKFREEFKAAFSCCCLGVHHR
Result Type: binding result

Some binders with recorded binding result:
# Binder, binding result
data = [
    ("28 (VHH) VHH: QVQLVESGGGLVQAGGSLRLSCAASGFPVVWKTMWWYRQAPGKEREWVAAISSYGWYTEYADSVNGRFTISRDNAKNTVYLQMNSLKPEDTAVYYCAVLVGYTYEGQGTQVTVS", "binds"),
    ("26 (VHH) VHH: QVQLVESGGGLVQAGGSLRLSCAASGFPVAHFVMYWYRQAPGKEREWVAAISSTGYNTAYADSVKGRFTISRDNAKNTVYLQMNSLKPEDTAVYYCEVYVGYFYHGQGTQVTVS", "binds"),
    ("47 (VHH) VHH: QVQLVESGGGLVQAGGSLRLSCAASGFPVDSKTMYWYRQAPGKEREWVAAIASAGHLTAYADSVKGRFTISRDNAKNTVYLQMNSLKPEDTAVYYCEVHVGWFYHGQGTQVTVS", "binds"),
    ("31 (VHH) VHH: QVQLVESGGGLVQAGGSLRLSCAASGFPVTENTMYWYRQAPGKEREWVAAITSNGSQTAYADSVKGRFTISRDNAKNTVYLQMNSLKPEDTAVYYCEVYVGYFYHGQGTQVTVS", "binds"),
    ("39 (VHH) VHH: QVQLVESGGGLVQAGGSLRLSCAASGFPVKWKSMAWYRQAPGKEREWVAAISSWGWYTEYADSVKGRFTISRDNAKNTVYLQMNSLKPEDTAVYYCYVYVGHTYHGQGTQVTVS", "binds"),
    ("52 (VHH) VHH: QVQLVESGGGLVQAGGSLRLSCAASGFPVKWKSMAWYRQAPGKEREWVAAISSYGWHTEYADSVKGRFTISRDNAKNTVYLQMNSLKPEDTAVYYCTVNVGKGYEGQGTQVTVS", "binds"),
]

Could you now look at the following binder, please?
Answer with the recorded binding result for the binder listed here: 53 (VHH) VHH: QVQLVESGGGLVQAGGSLRLSCAASGFPVNTRSMYWYRQAPGKEREWVAAIASTGWSTAYADSVKGRFTISRDNAKNTVYLQMNSLKPEDTAVYYCEVYVGYFYHGQGTQVTVS
binds
